- measured_on: T1, human myostatin (human, UniProt O14793 267-375, biotinylated in selections and radioactive assays (site not stated))
- T1 construct: Phage ELISA used both unbiotinylated and biotinylated myostatin; also called biotinylated human myostatin; myostatin-biotin
- T1 sequence (looked up): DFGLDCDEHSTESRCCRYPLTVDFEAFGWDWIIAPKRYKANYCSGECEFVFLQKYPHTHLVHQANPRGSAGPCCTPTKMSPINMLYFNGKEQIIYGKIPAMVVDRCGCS
- protocol_text: radioactive equilibrium binding assay
value_kind: B max (%)
Write the number in % without appending the unit.

Consider the following illustrative entries.
Item 39888-G5 (S82I) (designed binder, group M1-A; S82I) MTIPEIIIKVRGTQVVGSDMTVIVEFTNPLKETLRNVWVHLDGPGVTRPMKKMFPAIPMNHKVQWEEVVRPWVSGHRKLIAIMPQLFHIHVYGELDVQIQRRDYKDDDDK has what recorded B max?
83.1

Returns the measured B max for the input binder. Input: 39633-A1 (designed binder, group M4-A50) MTIPEIIIKVRGTQVVGSDMTVIVEFTNPFKETLRSVWVHLDGPGVTRPMKKMFREIPPNTTVQWEEVVRPWVSGHRKLIASMPTHHLLHVYGELDVQIQRRDYKDDDDK
63.9

Query (binder): 39633-C1 (designed binder, group M1-A50; V91L; also called M17 (clone ID)) MTIPEIIIKVRGTQVVGSDMTVIVEFTNPFKETLRSVWVHLDGPGVTRPMKKMFREIPPKTTVQWEEVVRPWVSGHRKLIASMRTQYLIHLYGELDVQIQRRDYKDDDDK ; field requested: B max
74.8

***
Entry under review: 39885-C1 (designed binder, group M2-A) MTIPEIIIKVRGTQVVGSDMTVIVEFTNPLKETLRNVWVHLDGPGVTRPMKKMFPAIPMNHKVQWEEVVRPWVSGHRKLIASMLNHFYKHVYGELDVQIQRRDYKDDDDK . Reported B max?
33.3

From: patent US20110059504A1
